Biological target: G protein-activated inward rectifier potassium channel 2 (Homo sapiens) + G protein-activated inward rectifier potassium channel 1 (Homo sapiens) (UniProt P48051+P48549)
Sequence (P48051 whole entry, looked up): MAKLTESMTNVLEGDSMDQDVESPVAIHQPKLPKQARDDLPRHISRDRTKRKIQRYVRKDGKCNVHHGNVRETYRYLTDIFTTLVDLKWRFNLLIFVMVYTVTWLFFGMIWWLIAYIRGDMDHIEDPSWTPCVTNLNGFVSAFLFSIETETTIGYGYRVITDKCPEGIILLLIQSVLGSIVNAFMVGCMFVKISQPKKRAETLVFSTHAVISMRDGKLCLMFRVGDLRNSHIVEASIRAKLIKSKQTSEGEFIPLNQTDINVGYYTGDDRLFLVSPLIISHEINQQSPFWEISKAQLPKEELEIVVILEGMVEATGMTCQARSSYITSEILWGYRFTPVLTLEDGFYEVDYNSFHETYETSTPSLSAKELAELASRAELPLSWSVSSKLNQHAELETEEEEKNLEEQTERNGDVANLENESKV
Sequence (P48549 whole entry, looked up): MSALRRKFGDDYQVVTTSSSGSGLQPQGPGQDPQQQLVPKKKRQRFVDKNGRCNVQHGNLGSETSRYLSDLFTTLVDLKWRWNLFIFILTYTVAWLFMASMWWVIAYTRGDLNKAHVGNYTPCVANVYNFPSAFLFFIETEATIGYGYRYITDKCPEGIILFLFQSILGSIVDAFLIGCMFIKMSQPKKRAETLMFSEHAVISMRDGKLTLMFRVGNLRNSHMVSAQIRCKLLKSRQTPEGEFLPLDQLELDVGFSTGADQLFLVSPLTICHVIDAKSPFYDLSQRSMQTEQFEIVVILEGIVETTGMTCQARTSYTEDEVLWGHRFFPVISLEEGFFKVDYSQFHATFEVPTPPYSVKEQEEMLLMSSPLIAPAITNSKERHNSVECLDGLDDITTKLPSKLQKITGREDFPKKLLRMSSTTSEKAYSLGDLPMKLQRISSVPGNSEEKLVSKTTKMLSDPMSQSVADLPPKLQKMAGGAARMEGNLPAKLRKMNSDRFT
Test: GIRK1/2 thallium flux modulators, retest, confirmation, cell-based, HEK293 rmGlu8/hGIRK1/2, FluoZin-2 (AID 623911)
Details: HEK293 rmGlu8/hGIRK1/2, thallium flux FluoZin-2; actives lie on both sides; glutamate co-added at its EC20 level
The whole screen tested about 2,100 compounds, of which about 770 (37%) were called active. This is one part of the list.
Entries and their manual score values follow.
Answer field: number only, no words.

[
  {
    "Molecule": "Cc1cccc(NC(=O)NC(C)CCc2ccccc2)c1 (centres undefined)",
    "manual score": 1
  }
]

Find the recorded manual score belonging to Cc1ccc(C)c(OCC(O)CN2C(C)CCCC2C)c1 (centres undefined) and report it.
-1

Find the recorded manual score belonging to COC(=O)c1c(NC(=S)Nc2ccc(F)cc2[N+](=O)[O-])sc2c1CCCCC2 and report it.
0

Find the recorded manual score belonging to COc1cccc2[nH]c3c(N4CCCC(C)C4)ncnc3c12 (centres undefined) and report it.
-1

Find the recorded manual score belonging to CC(=O)Oc1ccc(N(C(C)=O)S(=O)(=O)c2cccs2)c2ccccc12 and report it.
0

Find the recorded manual score belonging to CCOC(=O)c1c(NC(=S)Nc2ccccc2)sc2c1CCCCC2 and report it.
0

Find the recorded manual score belonging to CCOC(=O)c1c(NS(=O)(=O)Cc2ccccc2)sc2c1CCCC2 and report it.
1

Find the recorded manual score belonging to O=C1OC2(CCCCC2)OC(=O)C1=CNc1nc2ccccc2s1 and report it.
1
